test system: MIA PaCa-2; test: Cytotoxicity against human MIAPaCa2 cells in DMEM measured after 24 hrs by WST8 assay; assay type: cell-based; settings: mia paca-2, 24 h
measured parameter: Activity

Past entries and their recorded results:
| compound | system | Activity |
| --- | --- | --- |
| CC(C)(O)[C@H](O)COc1c2ccoc2cc2oc(=O)ccc12 [OXYPEUCEDANIN HYDRATE] | MIA PaCa-2 | Non-Toxic |
| CC(C)=CCC/C(C)=C/COc1c2ccoc2cc2oc(=O)ccc12 [BERGAMOTTIN] | MIA PaCa-2 | Non-Toxic |
| COC(C)(C)[C@H](O)COc1c2ccoc2cc2oc(=O)ccc12 | MIA PaCa-2 | Non-Toxic |
| COC(C)(C)[C@H](O)CC/C(C)=C/COc1c2ccoc2cc2oc(=O)ccc12 | MIA PaCa-2 | Non-Toxic |
| CO[C@@H](COc1c2ccoc2cc2oc(=O)ccc12)C(C)(C)O | MIA PaCa-2 | Non-Toxic |
| O=c1ccc2ccc(O)cc2o1 [UMBELLIFERONE] | MIA PaCa-2 | Non-Toxic |

// Input: `C=C(C)[C@@H](O)COc1c2ccoc2cc2oc(=O)ccc12` . Output its Activity only.
Non-Toxic

// Input: `C/C(=C\COc1c2ccoc2cc2oc(=O)ccc12)CC[C@@H](O)C(C)(C)O` . Output its Activity only.
Non-Toxic

// Input: CC1(C)O[C@H]1COc1c2ccoc2cc2oc(=O)ccc12 [OXYPEUCEDANIN] . Output its Activity only.
Non-Toxic

// Input: CC(C)=CCOc1c2ccoc2cc2oc(=O)ccc12 [ISOIMPERATORIN] . Output its Activity only.
Non-Toxic

Value source: ChEMBL document CHEMBL4196136
